Where these numbers come from: patent US11434205B2

Tested on: rats
Assay type: in vivo, rat
Conditions: rats of the MAP/HR figures, 2×ED50, tail vein; same value in min
Protocol: The Effects of the Compounds on the Circulatory Function were Measured in Rats Using a Small Animal Implanted Physiological Signal Telemetry System The anesthetic activity of the compounds was assessed in rats using a LORR assay and the up and down method was used to determine ED50. […] First, animal models were established. […] At least one week after surgery, data were recorded. […]
QUANTITY: recovery time of the test animals' righting reflex (min)
Answer format: numeric, min implied, no suffix.

The examples below pair each entry with its known result.
INSERT INTO assay_data (compound, target_under_test, unit_name, numeric_readout) VALUES
  ('CCC1(COC(=O)c2cncn2[C@H](C)c2ccccc2)COC1 [Compound B9]', 'rats', 'min', 1.82),
  ('CCC1(OC(=O)c2cncn2[C@H](C)c2ccccc2)COC1 [Compound B18]', 'rats', 'min', 4.65),
  ('C[C@H](c1ccccc1)n1cnc(F)c1C(=O)OC1(C)COC1 [Compound E38]', 'rats', 'min', 2.03),
  ('CC#CC1(OC(=O)c2cncn2[C@H](C)c2ccccc2)CCCCC1 [Compound D40]', 'rats', 'min', 7.35),
  ('CC(C)OC(=O)c1c(F)ncn1[C@H](C)c1ccccc1 [Compound E24]', 'rats', 'min', 1.25),
  ('CC(=O)C(C)(C)SC(=O)c1cncn1[C@H](C)c1ccccc1 [Compound C22]', 'rats', 'min', 1.55),
  ('CC#CC1(OC(=O)c2c(F)ncn2[C@H](C)c2ccccc2)COC1 [Compound E15]', 'rats', 'min', 1.20),
  ('C=C=CC1(OC(=O)c2c(C(F)(F)F)ncn2[C@H](C)c2ccccc2)COC1 [Compound E163]', 'rats', 'min', 1.58);

// query recovery time of the test animals' righting reflex value for entry C[C@H](c1ccccc1)n1cncc1C(=O)OC1CCC1 [Compound A17]
5.45
